Tested on: Pa16c cells
Test: Pa16c Cell Proliferation Assay
Format: cell-based
Conditions: Table 2, read-out: Inhibition of cell proliferation in Pa16c (IC50 class)
pIC50: −log10 of the molar value.
Give measured pIC50 for each item. Keep answers brief.

get_value(item= Cc1ncc(NC(=O)c2cc(C(F)(F)F)cnn2)cc1-c1ccnc(-c2ccnc(NC(=O)C3CC3)c2)c1 , readout=pIC50) returns 5.00 to 6.00

get_value(item= Cc1ccc(NC(=O)c2cncc(C(F)(F)F)n2)cc1-c1cncc(-c2ccnc(NC(=O)C3CC3)c2)c1 , readout=pIC50) returns 5.00 to 6.00

get_value(item= Cc1ccc(NC(=O)c2cc(C3CC3)cnn2)cc1-c1cc(N[C@H](C)CO)nc(-c2cn[nH]c2)c1 , readout=pIC50) returns > 7.00

get_value(item= Cc1ccc(NC(=O)c2cc(C(F)(F)F)cnn2)cc1-c1cc(N[C@H](C)CO)nc(-c2cn[nH]c2C)c1 , readout=pIC50) returns 6.30 to 7.00

get_value(item= Cc1ccc(NC(=O)c2cc(C3CC3)cnn2)cc1-c1ccnc(-c2ccoc2)c1 , readout=pIC50) returns 6.30 to 7.00

get_value(item= O=C(Nc1cc(-c2ccnc(-c3ccnc(NC(=O)C4CC4)c3)c2)c(F)cc1F)c1cc(C(F)(F)F)cnn1 , readout=pIC50) returns 5.00 to 6.00

get_value(item= Cc1cc(-c2cc(NC(=O)c3cc(C(F)(F)F)cnn3)ccc2C)cc(-c2ccnc(NC(=O)C3CC3)c2)n1 , readout=pIC50) returns 6.30 to 7.00
